Each entry below carries its recorded residual activity.
- experimental-target: Serine/threonine-protein kinase STK11 (Homo sapiens)
- Sequence (whole entry): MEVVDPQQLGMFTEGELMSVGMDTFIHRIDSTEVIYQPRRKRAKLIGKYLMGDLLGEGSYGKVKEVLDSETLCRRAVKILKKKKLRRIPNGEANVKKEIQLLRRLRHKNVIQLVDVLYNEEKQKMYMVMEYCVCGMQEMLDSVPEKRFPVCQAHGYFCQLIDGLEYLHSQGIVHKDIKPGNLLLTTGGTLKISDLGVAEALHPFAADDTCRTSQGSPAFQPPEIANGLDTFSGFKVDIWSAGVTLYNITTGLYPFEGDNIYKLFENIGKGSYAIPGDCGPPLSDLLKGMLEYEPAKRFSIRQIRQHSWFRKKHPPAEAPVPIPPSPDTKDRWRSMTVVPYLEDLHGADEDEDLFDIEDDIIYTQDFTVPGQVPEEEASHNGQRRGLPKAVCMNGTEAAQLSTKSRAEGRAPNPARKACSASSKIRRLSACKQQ
- assay-context: at 1 µM

line-notation | experimental-target | residual activity / %
O=C1C(Cl)=C(N2C(=O)CCC2=O)C(=O)c2ccccc21 | Serine/threonine-protein kinase STK11 (Homo sapiens) | 94
COc1ccc2c(c1)c(C1=C(c3c[nH]c4ccccc34)C(=O)NC1=O)cn2CCCN(C)C | Serine/threonine-protein kinase STK11 (Homo sapiens) | 101
Cn1sc(=O)n(Cc2ccccc2)c1=O | Serine/threonine-protein kinase STK11 (Homo sapiens) | 97
O=C1NC(=O)c2c1c1c3ccccc3[nH]c1n1cncc21 | Serine/threonine-protein kinase STK11 (Homo sapiens) | 84
CCCC(=O)Oc1ccc2[nH]c(C(=O)c3cc4ccccc4[nH]3)cc2c1 | Serine/threonine-protein kinase STK11 (Homo sapiens) | 98
COc1cc2nccc(Oc3ccc(NC(=S)NC(=O)c4ccccc4C)cc3)c2cc1OC | Serine/threonine-protein kinase STK11 (Homo sapiens) | 98
O=C1Nc2ccc(Cl)cc2/C1=C/c1cc(Cl)c(O)c(Cl)c1 | Serine/threonine-protein kinase STK11 (Homo sapiens) | 91
O=C(CCCc1ccc(-c2ccccc2F)cc1)Nc1ccc(O)cc1 | Serine/threonine-protein kinase STK11 (Homo sapiens) | 100
Nc1ncnc2[nH]nc(Nc3ccc(F)cc3)c12 | Serine/threonine-protein kinase STK11 (Homo sapiens) | 102
NCCNc1ncc(C(N)=O)c(Nc2cccc(C(F)(F)F)c2)n1 | Serine/threonine-protein kinase STK11 (Homo sapiens) | 74
O=S(=O)(c1cccc2cnccc12)N1CCCNCC1 | Serine/threonine-protein kinase STK11 (Homo sapiens) | 100
N#Cc1c(NC(=O)c2cccc3ccccc23)sc2c1CCCC2 | Serine/threonine-protein kinase STK11 (Homo sapiens) | 86
O=C(O)/C=C/c1cc(Br)c(Br)c(Br)c1Br | Serine/threonine-protein kinase STK11 (Homo sapiens) | 93

---

Each entry below carries its recorded residual activity.
- experimental-target: Serine/threonine-protein kinase Chk2 (Homo sapiens) (UniProt O96017)
- Sequence (O96017 whole entry): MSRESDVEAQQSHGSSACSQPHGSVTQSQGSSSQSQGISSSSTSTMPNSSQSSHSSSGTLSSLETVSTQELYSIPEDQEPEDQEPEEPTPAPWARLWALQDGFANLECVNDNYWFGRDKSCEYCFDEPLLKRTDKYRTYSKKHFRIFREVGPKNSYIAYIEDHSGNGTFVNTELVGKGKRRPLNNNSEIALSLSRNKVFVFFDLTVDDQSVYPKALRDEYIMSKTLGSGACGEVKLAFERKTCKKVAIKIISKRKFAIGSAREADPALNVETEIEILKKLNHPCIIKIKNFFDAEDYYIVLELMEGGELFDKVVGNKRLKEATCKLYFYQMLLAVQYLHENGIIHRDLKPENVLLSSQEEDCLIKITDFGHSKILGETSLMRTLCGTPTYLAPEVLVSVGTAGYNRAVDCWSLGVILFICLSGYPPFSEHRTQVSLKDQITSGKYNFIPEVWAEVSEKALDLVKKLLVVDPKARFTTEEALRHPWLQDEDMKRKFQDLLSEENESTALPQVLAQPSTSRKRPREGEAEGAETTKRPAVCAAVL
- assay-context: at 1 µM
measured-parameter: residual activity (%)

molecule | result-value
O=C(c1cc2cc(O)ccc2[nH]1)c1cc2cc(O)ccc2[nH]1 | 60
CSc1nc(-c2ccc(F)cc2)c(-c2ccnc(NC(C)c3ccccc3)c2)[nH]1 (stereo unspecified) | 5
O=C1Cc2c([nH]c3ccc([N+](=O)[O-])cc23)-c2ccccc2N1 | 3
CC(C)(C)n1nc(Cc2cccc3ccccc23)c2c(N)ncnc21 | 96
Nc1ncnc2c1c(-c1ccc(Oc3ccccc3)cc1)cn2C1CCCC1 | 79
O=c1cc(N2CCOCC2)oc2c1ccc1ccccc12 | 111
O=S(=O)(NCCNC/C=C/c1ccc(Br)cc1)c1cccc2cnccc12 | 81
COc1cc2ncnc(Nc3cccc(Cl)c3)c2cc1OC | 79
CCOC(=O)c1c(C)[nH]c(/C=C2\C(=O)Nc3ccccc32)c1C | 45
CCCCc1c(-c2ccc(O)cc2)[nH]c2nccnc12 | 31
CCCCc1c(-c2ccc(OC)cc2)[nH]c2nccnc12 | 44
Nc1n[nH]c2nc3ccccc3nc12 | 82
NCCNc1ncc(C(N)=O)c(Nc2cccc(C(F)(F)F)c2)n1 | 15
O=c1cc(N2CCNCC2)oc2c(-c3ccccc3)cccc12 | 90
CN(C)S(=O)(=O)c1ccc2c(c1)/C(=C/c1cc3c([nH]1)CCCC3)C(=O)N2 | 35
COc1ccc2c(c1)c(C1=C(c3c[nH]c4ccccc34)C(=O)NC1=O)cn2CCCN(C)C | 34
CC(C)(C)c1nc2c3ccc(F)cc3c3c(=O)[nH]ccc3c2[nH]1 | 2
COc1cc2c(cc1OC)-c1n[nH]c(Nc3cccc(F)c3)c1C2 | 82
CC(C)c1nn(-c2c(Cl)cccc2Cl)c2nc(Cc3ccc(OCCO)cc3)[nH]c(=O)c12 | 91
CC(C)[C@H](CO)Nc1nc(Nc2cc(N)cc(Cl)c2)c2ncn(C(C)C)c2n1 | 67
N#C/C(=C\c1ccc(O)c(O)c1)C(=O)NCc1ccccc1 | 89

---

- experimental-target: MAP kinase-activated protein kinase 2 (Homo sapiens)
- assay-context: at 1 µM
For each record, check the reported residual activity: if it is below 80% write class 1, else write class 0.

line-notation | assigned-category
O=C(O)/C=C/c1cc(Br)c(Br)c(Br)c1Br | class 0
O=C1C(Cl)=C(N2C(=O)CCC2=O)C(=O)c2ccccc21 | class 1
N#C/C(=C\c1ccc(O)c(O)c1)C(=O)NCc1ccccc1 | class 0
CCCC(=O)Oc1ccc2[nH]c(C(=O)c3cc4ccccc4[nH]3)cc2c1 | class 1
CCCCc1c(-c2ccc(O)cc2)[nH]c2nccnc12 | class 0
COc1ccc(-c2cnc3c(-c4ccsc4)cnn3c2)cc1 | class 0

---

Each entry below carries its recorded residual activity.
- experimental-target: Tyrosine-protein kinase CSK (Homo sapiens)
- assay-context: at 10 µM
measured-parameter: residual activity (%)

line-notation | units-symbol | result-value
CC(C)[C@H](CO)Nc1nc(Nc2cc(N)cc(Cl)c2)c2ncn(C(C)C)c2n1 | % | 73
CC(C)c1nn(-c2c(Cl)cccc2Cl)c2nc(Cc3ccc(OCCO)cc3)[nH]c(=O)c12 | % | 106
Cn1sc(=O)n(Cc2ccccc2)c1=O | % | 90
Nc1ncnc2c1c(-c1ccc(Oc3ccccc3)cc1)cn2C1CCCC1 | % | -1
N#Cc1c(NC(=O)c2cccc3ccccc23)sc2c1CCCC2 | % | 99
Cn1c2ccccc2c2c3c(c4c5ccccc5n(CCC#N)c4c21)CNC3=O | % | 102
COc1cc2nccc(Oc3ccc(NC(=S)NC(=O)c4ccccc4C)cc3)c2cc1OC | % | 69
O=C1NC(=O)c2c1c1c3ccccc3[nH]c1n1cncc21 | % | 58
NC(=O)Nc1sc(-c2ccc(F)cc2)cc1C(N)=O | % | 56
COc1ccc(-c2cnc3c(-c4ccsc4)cnn3c2)cc1 | % | 98
Nc1ncnc2[nH]nc(Nc3ccc(F)cc3)c12 | % | 65
O=C1NC(=O)C(c2cn(CCCn3ccnc3)c3ccccc23)=C1Nc1ccccc1 | % | 78

---

- experimental-target: Ephrin type-A receptor 1 (Homo sapiens)
- assay-context: at 1 µM
For each record, check the reported residual activity: if it is below 80% write Yes, else write No.

line-notation | assigned-category
O=C(CCCc1ccc(-c2ccccc2F)cc1)Nc1ccc(O)cc1 | No
Nc1nccc(-c2c(-c3ccc(F)cc3)ncn2C2CCNCC2)n1 | No
Nc1nc(Nc2ccc(S(N)(=O)=O)cc2)nn1C(=O)c1c(F)cccc1F | Yes
Nc1ncnc2c1cnn2-c1ccccc1 | No
Cn1sc(=O)n(Cc2ccccc2)c1=O | No

---

- experimental-target: Calcium/calmodulin-dependent protein kinase type IV (Homo sapiens) (UniProt Q16566)
- Sequence (Q16566 whole entry): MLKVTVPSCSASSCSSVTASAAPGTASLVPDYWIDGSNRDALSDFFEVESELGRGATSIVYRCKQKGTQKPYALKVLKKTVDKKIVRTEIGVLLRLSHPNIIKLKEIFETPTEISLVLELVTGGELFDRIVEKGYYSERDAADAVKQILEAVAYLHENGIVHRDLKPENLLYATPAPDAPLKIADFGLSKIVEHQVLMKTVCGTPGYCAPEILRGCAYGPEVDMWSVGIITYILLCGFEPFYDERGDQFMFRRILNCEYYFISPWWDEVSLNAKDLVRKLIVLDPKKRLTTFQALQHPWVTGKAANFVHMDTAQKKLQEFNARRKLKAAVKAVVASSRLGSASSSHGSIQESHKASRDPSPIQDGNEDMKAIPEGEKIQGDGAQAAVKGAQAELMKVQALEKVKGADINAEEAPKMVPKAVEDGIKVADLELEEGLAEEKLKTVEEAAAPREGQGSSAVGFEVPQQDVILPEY
- assay-context: at 1 µM
Each entry below carries its recorded residual activity.

line-notation | residual activity (%)
CCCCc1c(-c2ccc(OC)cc2)[nH]c2nccnc12 | 112
Nc1ncnc2[nH]nc(Nc3ccc(F)cc3)c12 | 100
Cc1cc(C)c(/C=C2\C(=O)Nc3ccccc32)[nH]1 | 104
NCCNc1ncc(C(N)=O)c(Nc2cccc(C(F)(F)F)c2)n1 | 114
O=C(CCCc1ccc(-c2ccccc2F)cc1)Nc1ccc(O)cc1 | 104
Cn1c2ccccc2c2c3c(c4c5ccccc5n(CCC#N)c4c21)CNC3=O | 100
O=C(c1ccccc1)c1ccc(N2CCOCC2)cc1O | 111
COc1cc2nccc(Oc3ccc(NC(=O)Nc4cc(C)on4)c(Cl)c3)c2cc1OC | 123
N#C/C(=C1/Nc2ccccc2S1)c1ccnc(NCCc2cccnc2)n1 | 88
O=C1NC(=O)c2c1c1c3ccccc3[nH]c1n1cncc21 | 61
COc1cc2nccc(Oc3ccc(NC(=S)NC(=O)c4ccccc4C)cc3)c2cc1OC | 121
CN(C)S(=O)(=O)c1ccc2c(c1)/C(=C/c1cc3c([nH]1)CCCC3)C(=O)N2 | 89
Nc1ncnc2c1c(-c1ccc(Oc3ccccc3)cc1)cn2C1CCCC1 | 112
O=C(c1cc2cc(O)ccc2[nH]1)c1cc2cc(O)ccc2[nH]1 | 114
O=C1NC(=O)C(c2c[nH]c3ccccc23)=C1c1c[nH]c2ccccc12 | 100
Nc1ncnc2c1cnn2-c1ccccc1 | 125
O=C(O)/C=C/c1cc(Br)c(Br)c(Br)c1Br | 94
O=C(Nc1nc2ccccc2n1CCN1CCOCC1)c1cccc([N+](=O)[O-])c1 | 115
COc1ccc2c(c1)c(C1=C(c3c[nH]c4ccccc34)C(=O)NC1=O)cn2CCCN(C)C | 105
COc1ccc(COc2ccc(Cc3cnc(N)nc3N)cc2OC)cc1 | 130
